Test system: HepG2 cells
TEST SUMMARY: Glucose production assay in HepG2 cells
Format: cell-based, human
PARTICULARS: Homo sapiens; HepG2, 48 hr; read-out: IC50 (inhibition of glucose production)
PARAMETER: IC50 (µM)
The figure you give is taken to be in µM; do not add the unit.

For the molecule C[Se]C[C@H]1O[C@@H](n2cnc3c(N)ncnc32)C(OC(C)=O)C1OC(C)=O (stereo partly shown) , what IC50 is on record?
15.5
